tested on: MDA-MB-231; assay: Antitumor activity against human MDA-MB-231 cells assessed as inhibit cell proliferation incubated for 72 hrs by CCK-8 assay; type: functional, cell-based; details: MDA-MB-231, 72 h
pIC50: −log10 of the molar value.

| Record Smiles | Assayed Target | pIC50 |
| --- | --- | --- |
| O=C(Nc1cccc(-c2oc3cc(-c4ccc(F)cc4)ccc3c(=O)c2O)c1)c1ccc(Br)cc1 | MDA-MB-231 | 4.60 |
| O=C(Nc1cccc(-c2oc3cc(-c4ccc(F)cc4)ccc3c(=O)c2O)c1)c1ccc([N+](=O)[O-])cc1 | MDA-MB-231 | 4.83 |
| CCCc1ccc(C(=O)Nc2cccc(-c3oc4cc(-c5ccc(F)cc5)ccc4c(=O)c3O)c2)cc1 | MDA-MB-231 | 4.49 |
| O=C(Nc1cccc(-c2oc3cc(-c4ccc(F)cc4)ccc3c(=O)c2O)c1)c1ccc(Cl)nc1 | MDA-MB-231 | 5.75 |
| O=C(Nc1cccc(-c2oc3cc(-c4ccc(F)cc4)ccc3c(=O)c2O)c1)c1ccc(C(F)(F)F)cc1 | MDA-MB-231 | 4.53 |
| O=C(Nc1cccc(-c2oc3cc(-c4ccc(F)cc4)ccc3c(=O)c2O)c1)c1cccc(F)c1 | MDA-MB-231 | 5.60 |
| Cc1cc(C(=O)Nc2cccc(-c3oc4cc(-c5ccc(F)cc5)ccc4c(=O)c3O)c2)ccc1F | MDA-MB-231 | 5.13 |
| O=C(Nc1cccc(-c2oc3cc(-c4ccc(F)cc4)ccc3c(=O)c2O)c1)c1cc(F)cc(F)c1 | MDA-MB-231 | 5.61 |

Just for reference, ChEMBL document CHEMBL5104204 is where these values come from.
